B1: library; a variant is named by its letters at N, in order (parent)
chain: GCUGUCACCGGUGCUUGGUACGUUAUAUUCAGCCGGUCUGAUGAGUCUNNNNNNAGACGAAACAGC

variants of: B1; experiment: normalized RNA/DNA level with ligand (relative to sTRSVctl = 100) (log10 (% of sTRSVctl)); HEK293T overexpressing SLC46A1; ligand concentration (+) RNA-Seq: 6 mM; higher = less ribozyme self-cleavage, higher mRNA level; settings: with (6R,S)-folinic acid; ligand present: yes
Readout Label: normalized RNA/DNA level with ligand (log10)
Answer with a number only.

Before answering, review these 5 worked examples.
Sequence Variant	Reported Result
AGGGAG	1.99
ACCAAG	2.01
AUUCUA	2
UGAGCU	2.02
AUCAGC	2.02

Query block: Query (variant): UCAACG ; field requested: normalized RNA/DNA level with ligand (log10)
Result block: 2

Query block: Query (variant): CAGGGC ; field requested: normalized RNA/DNA level with ligand (log10)
Result block: 2.03

Query block: Query (variant): AUCUGC ; field requested: normalized RNA/DNA level with ligand (log10)
Result block: 2.05

Query block: Query (variant): CACAAG ; field requested: normalized RNA/DNA level with ligand (log10)
Result block: 2.01

Query block: Query (variant): AAUACG ; field requested: normalized RNA/DNA level with ligand (log10)
Result block: 1.99
